Source listed as ChEMBL document CHEMBL1145498.

target entity: Calcium/calmodulin-dependent protein kinase type II subunit gamma (Homo sapiens) (UniProt Q13555)
Sequence (Q13555 whole entry): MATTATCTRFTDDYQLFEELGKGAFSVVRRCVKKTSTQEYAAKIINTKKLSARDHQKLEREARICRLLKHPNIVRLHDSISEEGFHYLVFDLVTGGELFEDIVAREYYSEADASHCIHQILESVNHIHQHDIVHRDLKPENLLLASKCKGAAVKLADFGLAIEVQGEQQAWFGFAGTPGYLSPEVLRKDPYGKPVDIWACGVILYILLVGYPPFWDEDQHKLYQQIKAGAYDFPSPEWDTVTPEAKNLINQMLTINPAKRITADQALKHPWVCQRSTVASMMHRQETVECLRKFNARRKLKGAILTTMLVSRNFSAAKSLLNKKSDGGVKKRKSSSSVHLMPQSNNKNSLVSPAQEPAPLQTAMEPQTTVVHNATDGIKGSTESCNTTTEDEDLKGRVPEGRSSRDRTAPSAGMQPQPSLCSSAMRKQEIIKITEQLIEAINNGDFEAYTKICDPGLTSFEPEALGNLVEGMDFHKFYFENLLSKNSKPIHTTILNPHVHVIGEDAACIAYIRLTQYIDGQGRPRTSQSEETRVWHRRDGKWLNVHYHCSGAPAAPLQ
measure: ΔTm (°C)
Dear colleague, please return just the value in °C, with no unit written.

Answered examples (2):
O=C(Nc1cccc(Nc2cc(Nc3cccc(C(F)(F)F)c3)ncn2)c1)C1CC1    -2
Brc1c(Br)c(Br)c2[nH]nnc2c1Br    0.6

stdin: Name the recorded ΔTm for CCCNC(=O)Nc1ccc(Oc2ncnc3cc(OC)c(OC)cc23)cc1Cl .
stdout: 0.3

stdin: Name the recorded ΔTm for CN1CCC(Nc2ncc3ncnc(Nc4ccc(F)c(Cl)c4)c3n2)CC1 .
stdout: 1.4

---

What follows is a record of ΔTm for Calcium/calmodulin-dependent protein kinase type II subunit delta (Homo sapiens).
Answer with the number, then the unit.

Answered examples (2):
Nc1cc2ncnc(Nc3cccc(Br)c3)c2cc1N    -1.6 °C
Brc1c(Br)c(Br)c2[nH]nnc2c1Br    -0.7 °C

// moving on: another record for ΔTm
stdin: Item: COc1cc2ncnc(Nc3cccc(Br)c3)c2cc1OC Test system: Calcium/calmodulin-dependent protein kinase type II subunit delta (Homo sapiens) Read-out: ΔTm Value: ?
stdout: -0.5 °C

---

What follows is a record of ΔTm for Serine/threonine-protein kinase pim-2 (Homo sapiens).
Dear colleague, please return just the value in °C, with no unit written.

Answered examples (3):
N#C/C(=C\c1ccc(O)c(O)c1)C(=O)Nc1ccccc1    1.5
COc1cc(C[C@H]2C(=O)OC[C@@H]2Cc2ccc(OC)c(OC)c2)ccc1O    0
COc1ccc(S(=O)(=O)N(CCO)c2ccccc2CN(C)C/C=C/c2ccc(Cl)cc2)cc1    0.6

stdin: Name the recorded ΔTm for N#CC(C#N)=Cc1ccc(O)c(O)c1 .
stdout: 1

stdin: Name the recorded ΔTm for Oc1cc(O)cc(/C=C/c2ccc(O)c(O)c2)c1 .
stdout: 2

stdin: Name the recorded ΔTm for CCOC(=O)c1c(C)[nH]c(/C=C2\C(=O)Nc3ccccc32)c1C .
stdout: 0.1

---

target entity: Calcium/calmodulin-dependent protein kinase type II subunit alpha (Homo sapiens) (UniProt Q9UQM7)
Sequence (Q9UQM7 whole entry): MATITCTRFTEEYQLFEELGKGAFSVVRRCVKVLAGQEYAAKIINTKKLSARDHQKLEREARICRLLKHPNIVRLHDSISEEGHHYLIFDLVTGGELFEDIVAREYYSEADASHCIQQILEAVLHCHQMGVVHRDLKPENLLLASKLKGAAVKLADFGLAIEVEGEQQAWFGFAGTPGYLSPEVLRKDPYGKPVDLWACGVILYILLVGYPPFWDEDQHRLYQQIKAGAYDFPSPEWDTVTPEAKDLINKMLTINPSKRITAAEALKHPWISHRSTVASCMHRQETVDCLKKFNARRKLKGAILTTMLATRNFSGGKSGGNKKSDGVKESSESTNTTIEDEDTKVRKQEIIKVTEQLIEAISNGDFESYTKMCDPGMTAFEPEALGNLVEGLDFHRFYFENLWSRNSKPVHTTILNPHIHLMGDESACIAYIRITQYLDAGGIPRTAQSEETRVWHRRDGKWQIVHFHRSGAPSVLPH
Examples of compounds with documented ΔTm follow.
Dear colleague, please return just the value in °C, with no unit written.

Answered examples (5):
COc1cc2ncnc(Nc3ccc(F)c(Cl)c3)c2cc1OCCCN1CCOCC1    0.3
O=C1NC(=O)C(c2c[nH]c3ccccc23)=C1c1c[nH]c2ccccc12    3.3
COc1ccc2c(c1)/C(=C/c1cnc[nH]1)C(=O)N2    1
Cc1cncc2cccc(S(=O)(=O)N3CCCNC[C@@H]3C)c12    1.2
NC(=O)c1ccc(-c2nc(-c3ccc4c(c3)OCCO4)c(-c3ccccn3)[nH]2)cc1    0.1

stdin: Name the recorded ΔTm for Cl.Cn1cc(C2=C(c3ccc4cc5n(c4c3)CCC(CN)C5)C(=O)NC2=O)c2ccccc21 (stereo unspecified) .
stdout: 1.4

stdin: Name the recorded ΔTm for N#C/C(=C1/Nc2ccccc2S1)c1ccnc(NCCc2cccnc2)n1 .
stdout: 2.6

stdin: Name the recorded ΔTm for CC(C)c1cc(/C=C(\C#N)C(=O)NCCCc2ccccc2)cc(C(C)C)c1O .
stdout: 0.6

---

target entity: Serine/threonine-protein kinase PLK1 (Homo sapiens) (UniProt P53350)
Sequence (P53350 whole entry): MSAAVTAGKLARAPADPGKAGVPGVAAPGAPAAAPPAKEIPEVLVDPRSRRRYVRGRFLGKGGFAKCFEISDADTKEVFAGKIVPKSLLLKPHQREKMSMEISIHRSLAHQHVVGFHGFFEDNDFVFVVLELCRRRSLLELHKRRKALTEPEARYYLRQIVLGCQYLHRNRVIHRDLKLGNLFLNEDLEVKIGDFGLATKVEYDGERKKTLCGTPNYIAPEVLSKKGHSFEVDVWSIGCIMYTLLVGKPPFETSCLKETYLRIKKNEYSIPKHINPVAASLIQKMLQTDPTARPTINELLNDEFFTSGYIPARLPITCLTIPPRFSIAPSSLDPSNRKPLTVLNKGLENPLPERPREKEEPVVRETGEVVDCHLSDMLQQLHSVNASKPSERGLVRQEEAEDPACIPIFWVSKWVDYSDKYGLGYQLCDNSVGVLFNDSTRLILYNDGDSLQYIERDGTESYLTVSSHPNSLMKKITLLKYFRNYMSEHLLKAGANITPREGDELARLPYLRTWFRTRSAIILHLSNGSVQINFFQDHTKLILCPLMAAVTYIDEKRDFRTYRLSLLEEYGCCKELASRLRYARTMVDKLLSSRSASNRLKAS
We label by threshold. Values of ΔTm strictly beneath 0.7 °C are yes. Values of 0.7 °C and up are no.

Some solved cases for reference:
COc1cc(O)c2c(c1)oc(=O)c1c3cc(O)c(O)cc3oc21    no
CC[C@H](CO)Nc1nc(NCc2ccccc2)c2ncn(C(C)C)c2n1    no
CN(C)c1ccc(CC2C(=O)Nc3ccccc32)cc1 (stereo not given)    yes

Now consider the entry below.
stdin: Lab note: ΔTm threshold 0.7 °C. Does this molecule come in strictly under it? Cn1cc(C2=C(c3cn(CCCN)c4ccccc34)C(=O)NC2=O)c2ccccc21
stdout: yes
